Could you please report measured Log 1/C for the items listed next?
# Species: Rattus norvegicus
# ASSAY_TEXT: Relaxant potency in rat aorta.
# Assay type: functional
Answers are plain numbers.

# Log 1/C lookup, item CC1(C)C=C(n2ccccc2=O)c2cc(O)ccc2O1
5.44

# Log 1/C lookup, item CC1(C)C=C(n2ccccc2=O)c2cc(C=C(C#N)C#N)ccc2O1
6.95

# Log 1/C lookup, item CC1(C)C=C(n2ccccc2=O)c2ccccc2O1
5.43

Provide reported Log 1/C for each item, in the same order as listed.
1. CC1(C)C=C(n2ccccc2=O)c2cc(OC(=O)Nc3ccc(F)cc3)ccc2O1
2. CC1(C)C=C(n2ccccc2=O)c2cc(C(=O)c3ccc(O)cc3)ccc2O1
3. CC1(C)C=C(n2ccccc2=O)c2cc(C#N)ccc2O1 [BIMAKALIM]
4. CC1(C)C=C(n2ccccc2=O)c2cc(C=O)ccc2O1

1. 5.3
2. 6.65
3. 7.67
4. 6.91

All figures here come from ChEMBL document CHEMBL1132616.
